Origin of values: the supplement of paper PMC8728848

# Target Or Test System: Glc(a1-4)Glc
# Assay Overview: glycan array binding signal (z-score within array); higher = stronger binding
# Conditions: glycan notation: IUPAC condensed, linker removed
Shown is part of a subset that was picked to be rich in the strongest signals.
Endpoint: glycan array binding signal (z-score)

Query: Entry rMpL (Macrolepiota procera) (protein) MSTQVSSGRTYKITNVIAGTVIDLSGEDNKSIIGYPYHSGKNQQWTFNWTGKAWTLRSASSGSYLGIEGTPAGGTRLVAVNDPFEWHIWRDEANENAFRIFVPFTNYNLDLSGYGDTTPGTPVQLWWTWEGLHQTWTIDRP : reported glycan array binding signal (z-score) = ?
Result: -0.289
